These data points were gathered from the supplement of paper PMC10065799.

# test.target: MERTK (UniProt Q12866)
# Sequence (Q12866 whole entry, looked up): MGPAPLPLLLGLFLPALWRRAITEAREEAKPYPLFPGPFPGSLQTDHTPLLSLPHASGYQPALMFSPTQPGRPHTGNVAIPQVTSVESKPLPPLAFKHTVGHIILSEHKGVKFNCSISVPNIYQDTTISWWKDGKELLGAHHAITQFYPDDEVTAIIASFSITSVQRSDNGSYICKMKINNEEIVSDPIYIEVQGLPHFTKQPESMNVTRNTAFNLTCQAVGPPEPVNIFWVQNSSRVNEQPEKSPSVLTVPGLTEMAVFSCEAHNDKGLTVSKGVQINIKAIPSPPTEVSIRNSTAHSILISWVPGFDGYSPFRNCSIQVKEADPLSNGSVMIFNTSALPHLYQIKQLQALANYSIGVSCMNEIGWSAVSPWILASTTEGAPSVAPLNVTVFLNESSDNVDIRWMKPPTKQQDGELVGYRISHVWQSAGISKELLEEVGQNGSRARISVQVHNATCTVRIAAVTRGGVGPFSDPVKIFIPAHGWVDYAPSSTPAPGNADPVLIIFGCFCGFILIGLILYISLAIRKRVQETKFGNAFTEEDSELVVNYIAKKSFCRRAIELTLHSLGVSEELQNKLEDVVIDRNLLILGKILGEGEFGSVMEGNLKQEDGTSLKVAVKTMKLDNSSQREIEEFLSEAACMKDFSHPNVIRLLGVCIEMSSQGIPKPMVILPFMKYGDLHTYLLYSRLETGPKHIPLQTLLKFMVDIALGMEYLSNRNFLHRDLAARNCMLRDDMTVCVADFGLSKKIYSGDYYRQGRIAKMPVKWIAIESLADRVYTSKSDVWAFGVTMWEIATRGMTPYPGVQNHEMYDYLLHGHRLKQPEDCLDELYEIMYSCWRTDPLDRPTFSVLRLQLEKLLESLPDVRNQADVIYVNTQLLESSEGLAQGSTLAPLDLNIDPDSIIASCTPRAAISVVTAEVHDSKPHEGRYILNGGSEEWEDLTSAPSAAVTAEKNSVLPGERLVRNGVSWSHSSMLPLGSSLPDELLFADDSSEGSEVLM
# protocol.text: phosphorylation enrichment, bacterial display (enrichment ratio); higher = better substrate or ligand; peptides without Tyr show the background;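 note: 11-residue human phosphosite peptides and single-mutation variants displayed on the E. coli surface, counted by deep sequencing, each peptide's frequency after selection divided by its frequency in the unselected input library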;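 note: frequency after pTyr selection over input frequency; kinase dosed for 20-30% of maximal phosphorylation in three min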
readout.name: phosphorylation enrichment
API doc: respond with a numeric literal and nothing else, no unit.

Consider the sequence KLIETYFSKNY [PLP1_Y50] and give its recorded phosphorylation enrichment.
0.374

Consider the sequence AIIGIYILRDD [CDH23_Y2949] and give its recorded phosphorylation enrichment.
0.546

Consider the sequence LTYHMYADPNI [SOS1_Y618_F623I] and give its recorded phosphorylation enrichment.
3.73

Consider the sequence RSRSSYTHSLN [MYCT1_Y116_G119S] and give its recorded phosphorylation enrichment.
0.762

Consider the sequence GLRYGYGGLGG [KRTAP20-2_Y15_V17G] and give its recorded phosphorylation enrichment.
0.349

Consider the sequence SISYDYCRVPM [BST2_Y8_T4I] and give its recorded phosphorylation enrichment.
2.98

Consider the sequence KAIMTYVFSFF [ACTN4_Y260_S262F_YF] and give its recorded phosphorylation enrichment.
0.431

Consider the sequence PNRILYGDFQQ [MYH7_Y715_R719Q] and give its recorded phosphorylation enrichment.
0.408

Consider the sequence PADQAYSWFQH [NDST1_Y711_R709Q_YF] and give its recorded phosphorylation enrichment.
7.11

Consider the sequence PVDVAYRHGYF [PLEC_Y2967_R2969H] and give its recorded phosphorylation enrichment.
0.687

Consider the sequence NIEPIYLNMLL [ATR_Y317_V316I] and give its recorded phosphorylation enrichment.
6.85

Consider the sequence YSSLGYPPPEG [ZSWIM4_Y87] and give its recorded phosphorylation enrichment.
7.49

Consider the sequence QLCVSYPGGFT [PROS1_Y259_N258S_YF] and give its recorded phosphorylation enrichment.
0.578

Consider the sequence FSGKAYADEER [CRIM1_Y826] and give its recorded phosphorylation enrichment.
0.395

Consider the sequence WHHIFYNELRV [ACTG1_Y91_T89I] and give its recorded phosphorylation enrichment.
0.444

Consider the sequence DPADRYLTEQY [CDKL5_Y286_C291Y] and give its recorded phosphorylation enrichment.
0.402

Consider the sequence RGVTRYIYNRE [HLA-DQB1_Y62_Y58G] and give its recorded phosphorylation enrichment.
0.865

Consider the sequence QADVIYVNTQL [MERTK_Y872] and give its recorded phosphorylation enrichment.
0.925

Consider the sequence QMRLRYLAAEE [CEP120_Y884] and give its recorded phosphorylation enrichment.
0.423

Consider the sequence DESEDYRDTVV [CNNM3_Y456] and give its recorded phosphorylation enrichment.
0.633

Consider the sequence GYGGGYGGVLT [KRT19_Y65_A60G] and give its recorded phosphorylation enrichment.
0.391

Consider the sequence EILTQYEAMAS [GFAP_Y242_R239L] and give its recorded phosphorylation enrichment.
0.471

Consider the sequence QTLEAYIRWNK [SPAST_Y604] and give its recorded phosphorylation enrichment.
0.45

Consider the sequence YQLPYYNTVPS [BMPR1A_Y458_M460T] and give its recorded phosphorylation enrichment.
5.81

Consider the sequence DMDATYRPMFS [JUP_Y701_YF] and give its recorded phosphorylation enrichment.
0.461

Consider the sequence WVFNHYRCIIW [BRCA2_Y2624_W2626C_YF] and give its recorded phosphorylation enrichment.
0.538

Consider the sequence TFTVSYLPDMS [FLNC_Y1602_YF] and give its recorded phosphorylation enrichment.
0.442

Consider the sequence IVWDSYTTNKV [GNB3_Y85] and give its recorded phosphorylation enrichment.
0.307

Consider the sequence SVTCTYSAALN [TP53_Y126_P128A] and give its recorded phosphorylation enrichment.
0.62

Consider the sequence FLTQHYDAKPQ [ANG_Y38] and give its recorded phosphorylation enrichment.
0.557

Consider the sequence PADRAYSWFQH [NDST1_Y711_YF] and give its recorded phosphorylation enrichment.
4.22

Consider the sequence EFISEHCGEII [EZH2_Y641_Y641H] and give its recorded phosphorylation enrichment.
0.658

Consider the sequence QDEHGYISLCF [HSPB1_Y133_R136L] and give its recorded phosphorylation enrichment.
1.36

Consider the sequence VQVAYYTVMMN [SPATA17_Y84_M86V] and give its recorded phosphorylation enrichment.
4.41

Consider the sequence YRGYSYDDIPD [TMEM230_Y112] and give its recorded phosphorylation enrichment.
0.393

Consider the sequence SAASGYSDVTD [DTX2_Y425_T421A] and give its recorded phosphorylation enrichment.
0.294

Consider the sequence AACQHYGVRTC [NR4A2_Y275] and give its recorded phosphorylation enrichment.
0.406

Consider the sequence ADQLDYIKALN [HPRT1_Y81_L78Q] and give its recorded phosphorylation enrichment.
0.441

Consider the sequence HLGNQYVNVMN [SLC3A1_Y461_R456H] and give its recorded phosphorylation enrichment.
0.29

Consider the sequence DEEYEYMNRRR [ERBB3_Y1199] and give its recorded phosphorylation enrichment.
0.37

Consider the sequence GGFTCYCDGKK [PROS1_Y266_YF] and give its recorded phosphorylation enrichment.
0.419

Consider the sequence EPSVPYRGTVF [GLI3_Y104] and give its recorded phosphorylation enrichment.
0.487

Consider the sequence NFDRIYIYHLR [MYOF_Y1137_V1136I] and give its recorded phosphorylation enrichment.
0.63

Consider the sequence LVPPRYARSEI [PKP2_Y194] and give its recorded phosphorylation enrichment.
0.528

Consider the sequence EEKKKYYDTKI [CASP5_Y103] and give its recorded phosphorylation enrichment.
0.366

Consider the sequence KPLMPCMRFSR [SMARCE1_Y73_Y73C_YF] and give its recorded phosphorylation enrichment.
0.506

Consider the sequence GMTRNYIIFIE [BCO2_Y294] and give its recorded phosphorylation enrichment.
0.487

Consider the sequence GKTQQYECKWY [BCR_Y751_D752E] and give its recorded phosphorylation enrichment.
0.487

Consider the sequence RYVSRYIYNRE [HLA-DQB1_Y62_T60S] and give its recorded phosphorylation enrichment.
0.993

Consider the sequence VATSWYRSPEL [CDKL5_Y177_R175S] and give its recorded phosphorylation enrichment.
0.412

Consider the sequence FNVLQYVVPKV [EIF3A_Y382_E386K] and give its recorded phosphorylation enrichment.
1.41

Consider the sequence LAARYYNWVSF [FLT4_Y1231] and give its recorded phosphorylation enrichment.
4.42

Consider the sequence ETAENYLGFTA [HSPA9_Y181_H184Y_YF] and give its recorded phosphorylation enrichment.
0.514

Consider the sequence EPDSLYGCGGG [ATM_Y2019] and give its recorded phosphorylation enrichment.
0.6

Consider the sequence RASGIYYVPKG [APBB1IP_Y340] and give its recorded phosphorylation enrichment.
19.8

Consider the sequence NVKGIYAVGDV [GSR_Y371] and give its recorded phosphorylation enrichment.
1.31

Consider the sequence TGQEEYSAMRD [KRAS_Y64_A59T] and give its recorded phosphorylation enrichment.
0.475

Consider the sequence QMVGMYASFYM [AVPR2_Y124_S127F] and give its recorded phosphorylation enrichment.
4.41
